Cited source: paper PMC5540273

Would you mind telling me the reported %Inh of each entry?
System: MAP3K15
Conditions: concentration: 1 μM, replicates: in singlicate; n = 1;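 note: KINOMEscan kinase panel screen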
Answers are plain numbers, in %.

Previously resolved entries follow.
Nc1nc(-c2ccc3c(N)n[nH]c3c2)cc(N2CCC[C@@H](C(=O)Nc3ccccc3)C2)n1.O=C(O)C(F)(F)F.O=C(O)C(F)(F)F : 2
COc1ccc(NC(=O)Nc2ccc(C)c(-c3ccc(C(=O)Nc4ccncc4)cc3)c2)cc1 : 0
NC(=O)c1sc(-n2cnc3ccccc32)cc1OCc1ccccc1F : 0
CC(C)(C)OC(=O)NC1CCCN(c2cc(-c3ccc4c(N)n[nH]c4c3)nc(N)n2)C1 (stereo not shown) : 0
CCc1nc(-c2cccc(C)c2)c(-c2ccnc(NC(=O)c3ccccc3)c2)s1 : 2

Batch of 2 molecules: report %Inh for each.
1. COc1cc2c(Nc3cccc(NC(=O)c4ccccc4)c3)ncnc2cc1OCCCN1CCOCC1
2. Clc1ccc(-c2cc(-c3c[nH]nc3-c3ccccn3)ccn2)cc1

Reply:
1: 0; 2: 0

For every listed record, write down its %Inh.
1. Cl.Fc1ccccc1COc1ccc(Nc2ncnc3ccc(-c4nnc(C(F)(F)F)o4)cc23)cc1Cl
2. Cc1ccc(C)c(NC(=O)NCCNc2ccnc(Nc3ccc(F)cc3)n2)c1
3. N#Cc1ccc(Oc2ccc(Nc3ncnc4cc[nH]c34)cc2Cl)cc1
4. O=C(Nc1ccccc1F)NC1CCN(c2ccnc(Nc3ccc(F)cc3)n2)C1 (stereo not shown)
5. Cl.c1ccc(Cn2ncc3cc(Nc4ncnc5ccccc45)ccc32)cc1
6. FC(F)(F)c1ccc(-c2cc(-c3c[nH]nc3-c3ccccn3)ccn2)cc1

Reply:
1: 0; 2: 0; 3: 43; 4: 0; 5: 0; 6: 0

Answer for every listed entry: what is its %Inh? The entries follow.
1. CSc1ccc(NC2=C(c3ccccc3Cl)C(=O)NC2=O)cc1
2. Fc1cccc(COc2ccc(Nc3ncnc4nn5ccccc5c34)cc2Cl)c1
3. Cn1cc(-c2ccc3c(c2)CCN3C(=O)Cc2cccc(C(F)(F)F)c2)c2c(N)ncnc21
4. Cc1ccc(O)cc1Nc1cc(C(F)(F)F)nc2ccc(-c3ccncc3)cc12
5. Cc1cc(N2CCC(NS(=O)(=O)c3ccc(F)cc3)CC2)nc(Nc2cccc(C#N)c2)n1.O=C(O)C(F)(F)F
6. Cl.O=S(=O)(c1cccc(F)c1)c1ccc(Nc2ncnc3cc(Br)sc23)cc1Cl

Reply:
1. 0
2. 0
3. 0
4. 0
5. 3
6. 0

* * *

Tested on: EPHA1
Details: concentration: 1 μM, replicates: in singlicate; n = 1
Please provide measured %Inh for the entries that follow.

COc1ccc(NC(=O)c2ccc(-c3cc(-c4nnc(C)o4)ccc3C)cc2)cc1 : 8%
CC(C)N1CCC(n2cnc(-c3ccc(F)cc3)c2-c2ccnc(N)n2)CC1 : 28%
NC(=O)c1sc(-n2cnc3ccccc32)cc1OCc1ccccc1F : 2%

As a next step, examine the compound that follows.
Query: Report %Inh for CCCc1ccc(S(=O)(=O)NC2CCN(c3ccnc(Nc4ccc(OC)cc4)n3)C2)cc1 (stereo not shown) please.
Reply: 15%

* * *

System: MLCK
Construct: gene MYLK3
Settings: concentration: 1 μM, replicates: in singlicate; n = 1
Please go through the items and note down their %Inh.
Numbers only, in %.

Examples with their reported %Inh follow.
CS(=O)(=O)CCNCc1ccc(-c2ccc3ncnc(Nc4ccc(OCc5ccccc5)c(Cl)c4)c3c2)o1.Cl : 0
Cl.c1ccc(Cn2ccc3cc(Nc4ncnc5ccccc45)ccc32)cc1 : 0
Nc1nccc2scc(-c3ccc4c(c3)CCN4C(=O)Cc3cc(F)ccc3F)c12 : 4

Here is the next item to consider.
Query: // returns reported %Inh for input COc1ccc(NC(=O)c2ccc(-c3cc(-c4nnc(C)o4)ccc3C)cc2)cc1
Reply: 0
